Assay: Hydrolysis half life against 10% rabbit liver homogenate was determined.
Format: ADME, organism-based, Oryctolagus cuniculus

{"givenSmiles": "C1CCNCC1.C1CCNCC1.CC(C)(C)C(=O)OCOP(=O)(O)C(Cl)(Cl)P(=O)(O)OCOC(=O)C(C)(C)C", "half-life, min": 14}

* * *

Assay: Hydrolysis half life at pH 7.4 against 50 mM phosphate buffer was determined.
Format: ADME
List of half-life values.

{"givenSmiles": "C1CCNCC1.C1CCNCC1.CC(C)(C)C(=O)OCOP(=O)(O)C(Cl)(Cl)P(=O)(O)OCOC(=O)C(C)(C)C", "half-life": "0.783 h"}
{"givenSmiles": "CC(C)(C)C(=O)OCOP(=O)(O)C(Cl)(Cl)P(=O)(OCOC(=O)C(C)(C)C)OCOC(=O)C(C)(C)C", "half-life": "1.7 h"}
